Tgt: human TLR7 (Homo sapiens)
Sequence (Q9NYK1 27-1049): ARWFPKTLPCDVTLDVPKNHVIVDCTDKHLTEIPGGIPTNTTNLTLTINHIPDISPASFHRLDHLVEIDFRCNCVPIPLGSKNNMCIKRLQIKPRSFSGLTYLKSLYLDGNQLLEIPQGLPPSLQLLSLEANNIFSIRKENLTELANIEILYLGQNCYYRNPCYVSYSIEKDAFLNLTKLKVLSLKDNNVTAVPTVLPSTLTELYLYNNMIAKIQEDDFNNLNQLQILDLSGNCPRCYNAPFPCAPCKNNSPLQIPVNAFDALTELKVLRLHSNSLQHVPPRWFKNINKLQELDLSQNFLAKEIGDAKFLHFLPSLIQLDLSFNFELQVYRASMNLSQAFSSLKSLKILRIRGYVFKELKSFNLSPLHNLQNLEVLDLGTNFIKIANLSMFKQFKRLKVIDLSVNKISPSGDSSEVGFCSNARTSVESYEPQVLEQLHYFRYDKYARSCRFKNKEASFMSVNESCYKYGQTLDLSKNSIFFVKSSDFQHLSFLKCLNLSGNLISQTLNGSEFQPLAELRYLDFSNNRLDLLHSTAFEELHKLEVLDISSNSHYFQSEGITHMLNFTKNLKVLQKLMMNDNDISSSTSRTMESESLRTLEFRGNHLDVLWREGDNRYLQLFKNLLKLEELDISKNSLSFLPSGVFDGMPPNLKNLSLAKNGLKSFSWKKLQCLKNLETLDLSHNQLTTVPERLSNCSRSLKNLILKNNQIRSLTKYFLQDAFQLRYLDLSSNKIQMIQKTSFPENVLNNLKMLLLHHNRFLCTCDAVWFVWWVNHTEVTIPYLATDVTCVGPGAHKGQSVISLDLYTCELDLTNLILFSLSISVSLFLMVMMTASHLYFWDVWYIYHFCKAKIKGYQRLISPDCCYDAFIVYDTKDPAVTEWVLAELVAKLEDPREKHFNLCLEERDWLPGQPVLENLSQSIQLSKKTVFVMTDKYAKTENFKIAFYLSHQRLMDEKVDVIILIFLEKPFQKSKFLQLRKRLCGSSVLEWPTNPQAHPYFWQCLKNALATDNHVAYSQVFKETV
Assay Notes: Human TLR7 agonist (reporter) activity assay, HEK-Blue TLR7 cells, SEAP reporter
Protocol Conditions: 18 h treatment, average where assay was performed multiple times, read-out: hTLR7 Agonism EC50
Response field label takes Met when EC50 is strictly below 100 nM and Not met in all other cases.

COc1cc(CNC2CCOCC2)ccc1Cn1ncc2nc(N)nc(NCc3noc(C4CC4)n3)c21 | Met
COc1cc(CN2CCN(C)CC2)ccc1Cn1ncc2nc(N)nc(NCc3noc(C)n3)c21 | Met
COc1cc(CN2CC(OC)C2)ccc1Cn1ncc2nc(N)nc(N[C@H](CO)CC3CC3)c21 | Not met
COc1cc(CNC2CCOCC2)cnc1Cn1ncc2nc(N)nc(NCc3noc(C)n3)c21 | Not met
COc1cc(CN2CCN(CCO)CC2)ccc1Cn1ncc2nc(N)nc(NCc3noc(C4CC4)n3)c21 | Met

--- query ---
Exam item: Field: below-cutoff. Rule: recorded EC50 strictly less than 100 nM. Subject: COc1cc(CN2CCN(S(C)(=O)=O)CC2)ccc1Cn1ncc2nc(N)nc(NCc3noc(C)n3)c21
Marked response: Not met
